Answer each item with its documented seed-corrected z-score.
# MEASUREMENT NOTES: Identification of proteins required for the processing of the EWS-FLI1 nascent transcript;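 further: robust z of luciferase light less the median z of siRNAs with the same seed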
# MEASUREMENT CONTEXT: TC32 Ewing sarcoma NR0B1-luc vs CMV-luc, 48 h; screened at 20 nM (by protocol)
In all, about 59,000 sequences were measured (the read-out: median about -0.00055, lowest 2% from about -2 on). Shown is part of a subset that was picked to be rich in the lowest values.
One number for each entry.

Observe how each entry below is paired with its result.
> print(dat)
                      monomer.sequence            test.readout  test.value
1    UGUCUUCUCAUGCAGUUUC against ACSF2  seed-corrected z-score        -0.5
2  UUUUCAGUCUCACUAGUUU against MIPEPP3  seed-corrected z-score       0.623
3     UAUGCUGUCGGAUGAGUCC against ATF1  seed-corrected z-score       0.345

*Q* Quote seed-corrected z-score reported for UUACUGUGCUGUCUAGACC against TMEM79 please.
*A* 1.12

---

# MEASUREMENT NOTES: Identification of proteins required for the processing of the EWS-FLI1 nascent transcript;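 further: robust z of luciferase light less the median z of siRNAs with the same seed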
# MEASUREMENT CONTEXT: TC32 Ewing sarcoma NR0B1-luc vs CMV-luc, 48 h; screened at 20 nM (by protocol)
# Description: Ewing sarcoma (ES) cells depend on the EWS-FLI1 fusion transcription factor for cell survival. […] Luciferase activity was assessed 48 hours post siRNA-transfection. Twenty microl of serum-free media containing Lipofectamine RNAiMax (0.05 microl) was added to wells containing siRNA (0.8 pmol). […] Luciferase expression was measured using OneGlo (Promega, Madison, WI). […]
Whole data set: some 59,000 sequences, median the read-out near -0.00055, cut for the lowest 2% near -2. Only a selection was taken, and the lowest values are over-represented in it overall.
Answer each item with its documented seed-corrected z-score.
One number for each entry.

Observe how each entry below is paired with its result.
> print(dat)
                       monomer.sequence  test.value
1  UUCAGCACCACGCAGUUGC against C12orf65       0.924
2     UCUGAUCUCACGGAUGAAG against RASEF       0.117

For every record below, what is its seed-corrected z-score?
1. UGUUCUCCUGCAGUUAUCC against WFDC3
2. AACGAAACAAACUUGGUCC against NGEF
3. AUAUUUCAAGGCAAGCUUC against DNAJC5
4. UGAUUAACCAGUACUGAUG against C5orf42
5. UCAGUAGGCAUUGGAGCGG against CEBPA
6. AAUAAGACUCCUAAAAUCC against OR2A25
7. UGCUAUAGCACCAACAGCC against CLCN5
8. UUCCUUGACAAGCAUAACC against CARNMT1

*A*
1. -0.0122
2. 0.943
3. 0.415
4. 0.83
5. -0.0618
6. -2.04
7. -2.8
8. -0.155

For every record below, what is its seed-corrected z-score?
1. UAGAAUGUCAGUUGGUUCC against MID1IP1
2. UUCUCAAUCAGCACGGCCC against GPX2
3. UGACAUUCCAAGGUUGUAG against TAS2R60
4. CUUUCAGCGUGGCUGUUCC against C6orf132
5. AAACCUAAGAAUACAAGUU against SAR1A
6. UUUUGUGCCUGUGCCCUUG against SBK1
7. UUUGUUUCUACCAUUCCCA against PPIL1

*A*
[0.366, -0.162, 0.323, -4.94, 0.849, -0.47, -2.34]

*Q* Quote seed-corrected z-score reported for UUUUGUGCCUUCGUUAACC against ADAM9 please.
*A* -0.742

---

# MEASUREMENT NOTES: Identification of proteins required for the processing of the EWS-FLI1 nascent transcript;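 further: robust z of luciferase light less the median z of siRNAs with the same seed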
# MEASUREMENT CONTEXT: TC32 Ewing sarcoma NR0B1-luc vs CMV-luc, 48 h; screened at 20 nM (by protocol)
The full ranking holds about 59,000 sequences; the median of the read-out is about -0.00055, and the lowest 2% start at about -2. The entries come from a sample that favours the lowest values as a whole.
TEST READOUT: seed-corrected z-score
One number for each entry.

> print(dat)
                     monomer.sequence  test.value
1    AGCAUCUUGACAUUCAUCU against MYL4      -0.225
2     UAGCUAUUACCUUACAUUG against HRG       0.409
3  UUGUCGUGAAAUGAAACUC against TTLL11      -0.262

For every record below, what is its seed-corrected z-score?
1. UCUAUGGGCAGUGGCAUCU against GOLGA2P10
2. UUUGGAGCCGAAAGCAUUG against TBX4
3. UCUGGUACUGUGAAGGGUC against TSPYL5
4. AAACACGUAGGGCACAUUC against SNU13

*A*
1. -1.07
2. -0.381
3. 0.606
4. -5.96

For every record below, what is its seed-corrected z-score?
1. AUAGUAAUUCCUGGUAAAG against CYBA
2. UUGGUGGUGAACAUAGGGA against TAL1
3. UUAAUCACCUUGUCGUUGC against ALDH3A1
4. UCCGGAACAUAUGUUGUCG against TNFRSF11B
5. UGUUUUUGAAGUUAGAUCU against LOC728999

*A*
1. -3.24
2. -0.201
3. -0.669
4. -0.942
5. 1.08

For every record below, what is its seed-corrected z-score?
1. UCAGCUAACAAAGAGUCGC against STAG3
2. UACUGAUUGAGUGCCCUGC against FGGY
3. UAAGUGGAAAUCCUCGGGC against WBP2NL
4. UGAGUUUCAUCAUAGUCUG against BMX
5. UUGACAGUUUCCAUCAGGC against PLIN3

*A*
0.617
-5.78
1.46
-4.87
0.105

---

Answer each item with its documented seed-corrected z-score.
# MEASUREMENT NOTES: Identification of proteins required for the processing of the EWS-FLI1 nascent transcript;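 further: robust z of luciferase light less the median z of siRNAs with the same seed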
# MEASUREMENT CONTEXT: TC32 Ewing sarcoma NR0B1-luc vs CMV-luc, 48 h; screened at 20 nM (by protocol)
# Method: Ewing sarcoma (ES) cells depend on the EWS-FLI1 fusion transcription factor for cell survival. […] Luciferase activity was assessed 48 hours post siRNA-transfection. Twenty microl of serum-free media containing Lipofectamine RNAiMax (0.05 microl) was added to wells containing siRNA (0.8 pmol). […] Luciferase expression was measured using OneGlo (Promega, Madison, WI). […]
Whole data set: some 59,000 sequences, median the read-out near -0.00055, cut for the lowest 2% near -2. Only a selection was taken, and the lowest values are over-represented in it overall.

For every record below, what is its seed-corrected z-score?
1. UUCUAAACAACUCUUGGAC against RPUSD4
2. UUCAUCACAACCUUCCGUG against TLR5
3. UAGGAUCCAGGGUUAGUUU against RPL18
4. UAGGUUGUGACUGGUGGUG against ARID5A
5. UAUUACUCAGCAGCUUUGC against TIPIN
6. AAAUGAACAGGUUUGGAAC against GRPR

*A*
[-0.962, 0.937, -2.17, -3.43, -0.378, 0.695]

For every record below, what is its seed-corrected z-score?
1. UCGGUGUAAGGUGUCCAUG against POU2AF1
2. UAUUGAAUGAUGUGGAGUC against PTCD2
3. UUCUUUCUGAGUCUGGUUA against RPL35
4. AAAUGUACCAAUACGUAGU against TMEM107
5. UUGCGGGUGACAAUCUCCC against CROCC
6. AAAGUUGAACUCCUGAUGG against MYT1L-AS1

*A*
1. -0.0736
2. 0.667
3. -3.01
4. -2.13
5. 0.165
6. 0.298

---

Answer each item with its documented seed-corrected z-score.
# MEASUREMENT NOTES: Identification of proteins required for the processing of the EWS-FLI1 nascent transcript;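 further: robust z of luciferase light less the median z of siRNAs with the same seed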
# MEASUREMENT CONTEXT: TC32 Ewing sarcoma NR0B1-luc vs CMV-luc (EWS-FLI1 target promoter against control promoter), 48 h; screened at 20 nM (by protocol)
# Procedure: Ewing sarcoma (ES) cells depend on the EWS-FLI1 fusion transcription factor for cell survival. […] Luciferase activity was assessed 48 hours post siRNA-transfection. Twenty microl of serum-free media containing Lipofectamine RNAiMax (0.05 microl) was added to wells containing siRNA (0.8 pmol). […] Luciferase expression was measured using OneGlo (Promega, Madison, WI). […]
The full ranking holds about 59,000 sequences; the median of the read-out is about -0.00055, and the lowest 2% start at about -2. This excerpt belongs to a sample that is enriched for the lowest values.
Give bare numbers.

Observe how each entry below is paired with its result.
> print(dat)
                     monomer.sequence  test.value
1   AAUGGGUCUACCUUGUUGG against PSMC5       -1.78
2   UCAAACACCAGGGUGAGGG against CDK18       -0.15
3    UUUGCAUUCAUAAAGAAUU against ING3      -0.246
4    UUUGAUACAGUAUCUACAG against DVL1       0.326
5  UCAGAGCGAUUUUCAGUAC against KCTD21       0.306

For every record below, what is its seed-corrected z-score?
1. UCCAGUGCAAUGACUCUUG against ZNF114
2. UGAGUUUCAGGUUCUCCGG against CAB39L
3. UCUUCGUCUGGGUCGUUUG against SIGLEC6

*A*
1. -2.45
2. -2.64
3. -0.384

For every record below, what is its seed-corrected z-score?
1. UCAGUUGUUACGCAAGGUG against PI16
2. UUAGUUCCAUGCCUUGCUC against ATP6V0A4
3. UGUUGUCAAAACCACUGCC against CTBP1
4. UGGAGUAUGAGUCCCAUUC against MTPAP
5. UGCAUUCCCACCAAUGUUG against EIF2B2

*A*
1: -0.652; 2: -0.497; 3: -1.98; 4: -15.6; 5: -0.2

*Q* Quote seed-corrected z-score reported for UGUUAAACUGCUAAGGAUG against RPRD2 please.
*A* -0.294

Source listed as PubChem BioAssay AID1159506.
